experiment: PK data for BTK CTMs (in vivo plasma concentrations); conditions: Dog Beagle, 30 mg/kg PO
measurement-label: AUC (µM·h)
Give the value in µM·h but do not write µM·h after it.

In plain terms, CN1CCN([C@H]2CCCN(c3cnc(C(N)=O)c(Nc4ccc(C5CCN(CC6CCN(c7ccc(C(=O)NC8CCC(=O)NC8=O)nc7)CC6)CC5)cc4)n3)C2)C1=O (stereo partly shown) [Compound 130] has a documented AUC of 0.23

* * *

Recorded DC50 for the following molecules
Target: BTK C481S (Homo sapiens, UniProt Q06187, C481S)
Assay: BTK degradation (Total BTK HTRF) in TMD8 cells expressing BTK-C481S
Type: cell-based
Design: endogenous in cells; host or cells: TMD8 BTK-C481S (clone2C3), Cas9 RNP knock-in
Settings: TMD8 BTK-C481S (clone2C3) cells, treatment time 4 h
Protocol: BTK levels were determined using Cisbio Total-BTK HTRF (Homologous Time-Resolved Fluorescence) kit (63ADK064PEG) according to the manufacturer's protocol. Briefly, cells were incubated in 1× supplied lysis buffer for 30 minutes. […] HTRF ratio was calculated as (acceptor signal at 665 nm/donor signal at 620 nm)×10^4. Background HTRF levels were determined from the control well containing the donor, but no acceptor, antibody. […]
Give the number; nM is assumed, so skip it.

Look over these answered cases.
- NC(=O)c1ncc(N2CCCCC2)nc1Nc1ccc(C2CCN(C[C@@H]3CCN(c4ccc5c(c4)C(=O)N(C4CCC(=O)NC4=O)C5=O)C3)CC2)cc1 (stereo partly drawn): 14.4
- NC(=O)c1ncc(N2CCCCC2)nc1Nc1ccc(C2CCN(CC3CCN(c4ccc(C(=O)NC5CCC(=O)NC5=O)nc4)CC3)CC2)cc1 (stereo not drawn): 14.5

DC50 reported for this molecule NC(=O)c1ncc(-c2nccs2)nc1Nc1ccc(C2CCN(C[C@@H]3CCN(c4ccc5c(c4)C(=O)N(C4CCC(=O)NC4=O)C5=O)C3)CC2)cc1 (stereo partly drawn) : 9.7

* * *

system: primary human T cells; assay: T cell activation assay, IL-2 secretion (ELISA); assay type: cell-based; settings: 37 nM; fold-change of response relative to baseline
measurement-label: IL-2 Secretion Anti-CD3/Anti-CD28 Stimulation
Reply with the value as a number alone.

Lab book: IL-2 Secretion Anti-CD3/Anti-CD28 Stimulation of CN1CCN([C@@H]2CCCN(c3cnc(C(N)=O)c(Nc4ccc(C5CCN(C6CN(c7ccc8c(c7)C(=O)N(C7CCC(=O)NC7=O)C8=O)C6)CC5)cc4)n3)C2)C1=O (some centres unmarked) noted as 2.08

Record CN1CCN([C@@H]2CCCN(c3cnc(C(N)=O)c(Nc4ccc(C5CCN(C[C@H]6CC[C@H](Nc7cccc8c7C(=O)N(C7CCC(=O)NC7=O)C8=O)CC6)CC5)cc4)n3)C2)C1=O (some centres unmarked) , field IL-2 Secretion Anti-CD3/Anti-CD28 Stimulation: 3.38

CN1CCN([C@@H]2CCCN(c3cnc(C(N)=O)c(Nc4ccc(N5CCN(CCCCc6cccc7c6CN(C6CCC(=O)NC6=O)C7=O)CC5)cc4)n3)C2)C1=O (some centres unmarked) yielded IL-2 Secretion Anti-CD3/Anti-CD28 Stimulation of 3.14

Query CN1CCN([C@@H]2CCCN(c3cnc(C(N)=O)c(Nc4ccc(C5CCN(C(=O)CCOCCNc6cccc7c6C(=O)N(C6CCC(=O)NC6=O)C7=O)CC5)cc4)n3)C2)C1=O (some centres unmarked) yields IL-2 Secretion Anti-CD3/Anti-CD28 Stimulation of 3.35

get_value(item= CN1CCN([C@@H]2CCCN(c3cnc(C(N)=O)c(Nc4ccc(N5CCN(C[C@@H]6[C@H]7CN(c8ccc9c(c8)C(=O)N(C8CCC(=O)NC8=O)C9=O)C[C@@H]67)CC5)cc4)n3)C2)C1=O (some centres unmarked) , readout=IL-2 Secretion Anti-CD3/Anti-CD28 Stimulation) returns 1.58

* * *

experiment: PK data for BTK CTMs (in vivo plasma concentrations); settings: Monkey cynomolgus, 1 mg/kg IV
measurement-label: clearance (mL/min/kg)
Entry rule: numbers only, all in mL/min/kg.

Reported clearance for NC(=O)c1ncc(N2CCCCC2)nc1Nc1ccc(C2CCN(C[C@@H]3CCN(c4ccc5c(c4)C(=O)N(C4CCC(=O)NC4=O)C5=O)C3)CC2)cc1 (stereo partly shown) [Compound 149] was 22.2

* * *

system: primary human T cells; experiment: T cell activation assay, IL-2 secretion (ELISA); format: cell-based; conditions: 37 nM; fold-change of response relative to baseline
measurement-label: IL-2 Secretion Anti-CD3/Anti-CD28 Stimulation

* CN1CCN([C@@H]2CCCN(c3cnc(C(N)=O)c(Nc4ccc(C5CCN(C[C@H]6CCN(c7ccc8c(c7)C(=O)N(C7CCC(=O)NC7=O)C8=O)C6)CC5)cc4)n3)C2)C1=O (some centres unmarked) | 3.49
* CN1CCN([C@@H]2CCCN(c3cnc(C(N)=O)c(Nc4ccc(C5CCN(CC6CCN(c7ccc8c(c7)C(=O)N(C7CCC(=O)NC7=O)C8=O)CC6)CC5)cc4)n3)C2)C1=O (some centres unmarked) | 1.99
* CN1CCN([C@@H]2CCCN(c3cnc(C(N)=O)c(Nc4ccc(OCCCNc5ccc6c(c5)C(=O)N(C5CCC(=O)NC5=O)C6=O)cc4)n3)C2)C1=O (some centres unmarked) | 1.80

Record CN1CCN([C@@H]2CCCN(c3cnc(C(N)=O)c(Nc4ccc5c(c4)CCN(C4CN(c6ccc7c(c6)C(=O)N(C6CCC(=O)NC6=O)C7=O)C4)C5)n3)C2)C1=O (some centres unmarked) ; system primary human T cells; IL-2 Secretion Anti-CD3/Anti-CD28 Stimulation = 3.82

Entry CN1CCN([C@H]2CCCN(c3cnc(C(N)=O)c(Nc4ccc5c(c4)CCN(CC4CN(c6ccc7c(c6)C(=O)N(C6CCC(=O)NC6=O)C7=O)C4)C5)n3)C2)C1=O (some centres unmarked) , primary human T cells data, IL-2 Secretion Anti-CD3/Anti-CD28 Stimulation value: 2.19

* * *

target: BTK (Mus musculus, UniProt P35991); construct: from tissue; host or cells: mouse blood B cells / splenocytes (CD-1 or BALB/c); assay: In vivo degradation of BTK in mouse PD experiments with oral dosing; conditions: oral dose 3 mg/kg, 6 h, blood, flow cytometry
Classify by measured % BTK Remaining: condition met if it is equal to or exceeds 70%, condition not met if it is smaller.

• CN1CCN([C@H]2CCCN(c3cnc(C(N)=O)c(Nc4cnn(C5CCN(CC6CCN(c7ccc8c(c7)C(=O)N(C7CCC(=O)NC7=O)C8=O)CC6)CC5)c4)n3)C2)C1=O (some centres unmarked) = condition not met
• CN1CCN([C@@H]2CCCN(c3cnc(C(N)=O)c(Nc4ccc(C5CCN(C6CN(Cc7ccc8c(c7)CN(C7CCC(=O)NC7=O)C8=O)C6)CC5)cc4)n3)C2)C1=O (some centres unmarked) = condition not met
• CN1CCN([C@@H]2CCCN(c3cnc(C(N)=O)c(Nc4ccc(C5CCN(C6CN(c7ccc8c(c7)C(=O)N(C7CCC(=O)NC7=O)C8=O)C6)CC5)cc4)n3)C2)C1=O (some centres unmarked) = condition not met

Determine whether this compound has % BTK Remaining no lower than 70%: CN1CCN([C@H]2CCCN(c3cnc(C(N)=O)c(Nc4cnn(C5CCN(CC6CN(c7ccc8c(c7)C(=O)N(C7CCC(=O)NC7=O)C8=O)C6)CC5)c4)n3)C2)C1=O (some centres unmarked) condition met

Is % BTK Remaining at least 70%? Consider Cn1cc(Nc2nc(N3CCC[C@@H](N4CC5(CN(C6CCN(c7ccc8c(c7)C(=O)N([C@H]7CCC(=O)NC7=O)C8=O)CC6)C5)OC4=O)C3)cnc2C(N)=O)cn1 condition met

* * *

target: BTK C481S (Homo sapiens, UniProt Q06187, C481S); assay: BTK degradation (Total BTK HTRF) in TMD8 cells expressing BTK-C481S; assay type: cell-based; set-up: endogenous in cells; host or cells: TMD8 BTK-C481S (clone2C3), Cas9 RNP knock-in; details: TMD8 BTK-C481S (clone2C3) cells, treatment time 4 h
measurement-label: DC50 (nM)
State the answer as a number, implicitly in nM.

Recorded results for 2 compounds are shown here.
• CN1CCN([C@@H]2CCCN(c3cnc(C(N)=O)c(Nc4ccc(N5CCC6(CC5)CCN(c5ccc7c(c5)C(=O)N(C5CCC(=O)NC5=O)C7=O)CC6)cc4)n3)C2)C1=O (stereo partly shown) = 5.8
• CN1CCN([C@@H]2CCCN(c3cnc(C(N)=O)c(Nc4ccc(C5CCN(CC6CCN(c7ccc8c(c7)n(C)c(=O)n8C7CCC(=O)NC7=O)CC6)CC5)cc4)n3)C2)C1=O (stereo partly shown) = 0.4

Consider CN1CCN([C@H]2CCCN(c3cnc(C(N)=O)c(Nc4ccc(C5CCN(CC6CCN(c7ccc(C(=O)NC8CCC(=O)NC8=O)nc7)CC6)CC5)cc4)n3)C2)C1=O (stereo partly shown) . Its measured DC50 is 1.8

Entry under test: NC(=O)c1ncc(N2CCC[C@@H](N3CCOC3=O)C2)nc1Nc1ccc(C2CCN(C[C@H]3CCN(c4ccc5c(c4)C(=O)N(C4CCC(=O)NC4=O)C5=O)C3)CC2)cc1 (stereo partly shown) . Its DC50 was 1.2

src = patent US12600732B2
